# assayed-system: Amine oxidase [flavin-containing] A (Homo sapiens, UniProt P21397)
# Sequence (P21397 whole entry): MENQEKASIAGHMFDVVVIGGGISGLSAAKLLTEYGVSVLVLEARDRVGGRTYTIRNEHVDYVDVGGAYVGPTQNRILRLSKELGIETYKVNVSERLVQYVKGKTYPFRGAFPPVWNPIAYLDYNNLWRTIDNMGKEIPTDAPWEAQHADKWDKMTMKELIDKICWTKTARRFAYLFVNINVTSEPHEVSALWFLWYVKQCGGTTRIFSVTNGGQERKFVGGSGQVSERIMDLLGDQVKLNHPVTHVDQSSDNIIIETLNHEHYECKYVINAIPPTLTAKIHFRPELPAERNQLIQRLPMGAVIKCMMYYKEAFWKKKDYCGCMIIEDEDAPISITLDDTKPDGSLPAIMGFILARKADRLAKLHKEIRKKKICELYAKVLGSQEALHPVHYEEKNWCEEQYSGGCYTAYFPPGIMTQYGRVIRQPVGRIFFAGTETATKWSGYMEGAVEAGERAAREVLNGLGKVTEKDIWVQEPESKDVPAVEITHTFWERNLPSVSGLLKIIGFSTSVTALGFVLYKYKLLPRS
# study-conditions: 20 min, read-out: INH
# Description: Inhibition of human recombinant MAO-A using p-tyramine as substrate assessed as formation of H2O2 at 100 uM preincubated for 15 mins under dark condition followed by substrate addition measured after 20 mins by fluorescence assay relative to control
measurement-kind: inhibition at 100 µM
Entry format: amount then unit.

In: Provide the documented inhibition at 100 µM with Amine oxidase [flavin-containing] A (Homo sapiens, UniProt P21397) as the system for COc1ccccc1/C=C1\COc2cc(OCCCCCCNc3c4c(nc5ccccc35)CCCC4)ccc2C1=O
Out: 70.3%

In: Next record, please: COc1ccc(/C=C2\COc3cc(OCCCCCCCCCNc4c5c(nc6ccccc46)CCCC5)ccc3C2=O)cc1
Out: 60.2%

In: Item: COc1ccc(/C=C2\COc3cc(OCCCCCCNc4c5c(nc6ccccc46)CCCC5)ccc3C2=O)cc1OC
Out: 51.6%

In: Also COc1cc(/C=C2\COc3cc(OCCCCCCNc4c5c(nc6ccccc46)CCCC5)ccc3C2=O)cc(OC)c1OC ?
Out: 25.7%

---

Record form. Attribute: Papp at 10 h, 100 mg/mL. Fill in for each entry.
# method-summary: in vitro
# study-conditions: PAMPA
# Description: Permeability of the compound at 100 mg/mL after 10 hrs by PAMPA
Record the value in ×10⁻⁶ cm/s, omitting the unit from your answer.

In: Fill blank: measured Papp at 10 h, 100 mg/mL of the molecule O=C1/C(=C/c2ccc(Cl)cc2)COc2cc(OCCCCCCNc3c4c(nc5ccccc35)CCCC4)ccc21 is ____.
Out: 1.1

In: Please give the result for O=C1/C(=C/c2ccc(F)cc2)COc2cc(OCCCCCCNc3c4c(nc5ccccc35)CCCC4)ccc21 too.
Out: 4

In: Repeat with COc1ccc(/C=C2\COc3cc(OCCCCCCNc4c5c(nc6ccccc46)CCCC5)ccc3C2=O)cc1
Out: 6.8

In: Item: COc1ccc(CC2COc3cc(OCCCCCCNc4c5c(nc6ccccc46)CCCC5)ccc3C2=O)cc1 (stereo unspecified)
Out: 2.8

In: Next record, please: COc1ccc(/C=C2\COc3cc(OCCCCCCCCNc4c5c(nc6ccccc46)CCCC5)ccc3C2=O)cc1
Out: 4.9

In: Same question, COc1ccc(/C=C2\COc3cc(OCCCCCNc4c5c(nc6ccccc46)CCCC5)ccc3C2=O)cc1 this time
Out: 6.6

---

Here's what we have: pIC50 numbers for Acetylcholinesterase (Electrophorus electricus).
Please treat pIC50 as minus the base-10 logarithm of the molar concentration.

In: Would you kindly share the measured pIC50 for COc1cccc(/C=C2\COc3cc(OCCCCCCNc4c5c(nc6ccccc46)CCCC5)ccc3C2=O)c1 ?
Out: 6.85

In: Okay, and COc1ccc(/C=C2\COc3cc(OCCCCCCNc4c5c(nc6cc(Cl)ccc46)CCCC5)ccc3C2=O)cc1 ?
Out: 6.91

In: Continue with COc1ccc(/C=C2\COc3cc(OCCCCCCCCNc4c5c(nc6ccccc46)CCCC5)ccc3C2=O)cc1
Out: 7.16

In: Record: COc1ccc(/C=C2\COc3cc(OCCCCCCNc4c5c(nc6ccccc46)CCCC5)ccc3C2=O)cc1OC
Out: 6.93

In: Thanks! And COc1cc(/C=C2\COc3cc(OCCCCCCNc4c5c(nc6ccccc46)CCCC5)ccc3C2=O)cc(OC)c1OC ?
Out: 6.97

In: Try CCN(CC)c1ccc(/C=C2\COc3cc(OCCCCCCNc4c5c(nc6ccccc46)CCCC5)ccc3C2=O)cc1 next.
Out: 6.16

In: Entry COc1ccc(/C=C2\COc3cc(OCCCCCCNc4c5c(nc6ccccc46)CCCC5)ccc3C2=O)cc1 please
Out: 7.17

In: Thanks! And COc1ccc(CC2COc3cc(OCCCCCCNc4c5c(nc6ccccc46)CCCC5)ccc3C2=O)cc1 (centres undefined) ?
Out: 7.04

In: Further, for COc1ccc(/C=C2\COc3cc(OCCCCCCCCCCNc4c5c(nc6ccccc46)CCCC5)ccc3C2=O)cc1 ?
Out: 6.05

---

Record form. Attribute: pIC50. Fill in for each entry.
# assayed-system: Amine oxidase [flavin-containing] B (Homo sapiens, UniProt P27338)
# Sequence (P27338 whole entry): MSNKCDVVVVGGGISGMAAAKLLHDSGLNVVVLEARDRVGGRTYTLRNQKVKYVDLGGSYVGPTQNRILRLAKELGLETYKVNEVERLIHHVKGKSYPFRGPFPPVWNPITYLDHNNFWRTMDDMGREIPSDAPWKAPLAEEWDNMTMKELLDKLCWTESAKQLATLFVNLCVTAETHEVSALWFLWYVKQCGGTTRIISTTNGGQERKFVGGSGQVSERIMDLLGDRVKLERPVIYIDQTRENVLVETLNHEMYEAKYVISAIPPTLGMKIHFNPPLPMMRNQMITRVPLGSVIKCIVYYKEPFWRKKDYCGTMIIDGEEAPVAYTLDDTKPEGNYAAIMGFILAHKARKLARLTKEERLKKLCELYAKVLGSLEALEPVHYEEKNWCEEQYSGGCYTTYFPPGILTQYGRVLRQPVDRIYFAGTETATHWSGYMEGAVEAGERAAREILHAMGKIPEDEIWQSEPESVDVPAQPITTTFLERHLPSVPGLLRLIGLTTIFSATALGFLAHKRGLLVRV
Schema: pIC50 number; meaning minus log10 of the concentration expressed in molar units.

In: Notebook entry, Amine oxidase [flavin-containing] B (Homo sapiens, UniProt P27338) assay: pIC50 of O=C1/C(=C/c2ccc(Cl)cc2)COc2cc(OCCCCCCNc3c4c(nc5ccccc35)CCCC4)ccc21 = ?
Out: 4.81

In: Also CN(C)c1ccc(/C=C2\COc3cc(OCCCCCCNc4c5c(nc6ccccc46)CCCC5)ccc3C2=O)cc1 ?
Out: 5.99

In: // next record COc1ccc(/C=C2\COc3cc(O)ccc3C2=O)cc1
Out: 5.97

In: // same read-out, input: COc1ccc(/C=C2\COc3cc(OCCCCCCCCCCNc4c5c(nc6ccccc46)CCCC5)ccc3C2=O)cc1
Out: 5.46

In: // repeat for COc1cccc(/C=C2\COc3cc(OCCCCCCNc4c5c(nc6ccccc46)CCCC5)ccc3C2=O)c1 and report
Out: 5.66

---

# assayed-system: Amine oxidase [flavin-containing] A (Homo sapiens, UniProt P21397)
# study-conditions: 20 min, read-out: INH
Assignment: determine reported inhibition at 100 µM for the given molecules.
Express the result in % but write the number alone.

In: Bench note: what inhibition at 100 µM did COc1ccc(/C=C2\COc3cc(OCCCCCCNc4c5c(nc6cc(Cl)ccc46)CCCC5)ccc3C2=O)cc1 show?
Out: 15.3

In: Here is the next molecule: COc1cccc(/C=C2\COc3cc(OCCCCCCNc4c5c(nc6ccccc46)CCCC5)ccc3C2=O)c1
Out: 54.1

In: // same read-out, input: COc1ccc(/C=C2\COc3cc(OCCCCCCCCNc4c5c(nc6cc(Cl)ccc46)CCCC5)ccc3C2=O)cc1
Out: 33.1

In: Please give the result for COc1ccc(/C=C2\COc3cc(OCCCCCNc4c5c(nc6ccccc46)CCCC5)ccc3C2=O)cc1 too.
Out: 58.4

In: Now give it for O=C1/C(=C/c2ccc(F)cc2)COc2cc(OCCCCCCNc3c4c(nc5ccccc35)CCCC4)ccc21 too.
Out: 58.4

In: Okay, and COc1ccc(/C=C2\COc3cc(OCCCCCCCCCCNc4c5c(nc6ccccc46)CCCC5)ccc3C2=O)cc1 ?
Out: 69.6

In: Another molecule to look at: COc1ccc(/C=C2\COc3cc(OCCCCCCCCNc4c5c(nc6ccccc46)CCCC5)ccc3C2=O)cc1
Out: 64.8

In: Another molecule to check: CCN(CC)c1ccc(/C=C2\COc3cc(OCCCCCCNc4c5c(nc6ccccc46)CCCC5)ccc3C2=O)cc1
Out: 22.4

In: Subsequent entry: Cc1ccc(/C=C2\COc3cc(OCCCCCCNc4c5c(nc6ccccc46)CCCC5)ccc3C2=O)cc1
Out: 60.5
